From: patent EP0745599A2

test system: ORYZA SATIVA, L. TEBONNET; test: Preemergence herbicidal evaluation, ORYSAT (Rice, Tebonnet); type: in vivo; set-up: key: visual rating scale 0-9 vs control; conditions: Rate 0.500 kg/ha, rated four to five weeks after treatment
outcomeMeasure: ORYSAT
# output: bare number, no unit

> print(dat)
                                   compound  outcomemeasure  readoutnumber
1  C=CCn1c(=O)[nH]c(=O)n(-c2cc(N3C(=O)C4=C(CCCC4)C3=O)c(F)cc2Cl)c1=O          ORYSAT            0.0
2  C#CCn1c(=O)n(C)c(=O)n(-c2cc(N3C(=O)C4=C(CCCC4)C3=O)c(F)cc2Cl)c1=O          ORYSAT            0.0
3  C=CCn1c(=O)n(C)c(=O)n(-c2cc(N3C(=O)C4=C(CCCC4)C3=O)c(F)cc2Cl)c1=O          ORYSAT            2.0
4  CC(C)OC(=O)Cn1c(=O)n(C)c(=O)n(-c2cc(N=c3sc(=O)n4n3CCCC4)c(F)cc2Cl)c1=O          ORYSAT            2.0

Task: Please report the recorded ORYSAT for CC(C)OC(=O)Cn1c(=O)n(C)c(=O)n(-c2cc(N3C(=O)C4C[S+]([O-])CCN4C3=O)c(F)cc2Cl)c1=O (centres unmarked) .
Output: 4.0

* * *

tested on: CASSIA OBTUSIFOLIA, L.; assay: Preemergence herbicidal evaluation, CASOB (Sicklepod); type: in vivo; parameters: key: visual rating scale 0-9 vs control; settings: Rate 0.250 kg/ha, rated four to five weeks after treatment
outcomeMeasure: CASOB

Worked examples follow.
> print(dat)
                                   compound             assaysystem  result
1  CC(C)OC(=O)Cn1c(=O)n(C)c(=O)n(-c2cc(N3C(=O)C4C[S+]([O-])CCN4C3=O)c(F)cc2Cl)c1=O (centres unmarked) [Compound 14]  CASSIA OBTUSIFOLIA, L.     2.0
2  C=CCn1c(=O)[nH]c(=O)n(-c2cc(N3C(=O)C4=C(CCCC4)C3=O)c(F)cc2Cl)c1=O [Compound 18]  CASSIA OBTUSIFOLIA, L.     0.0
3  C=CCn1c(=O)n(C)c(=O)n(-c2cc(N3C(=O)C4=C(CCCC4)C3=O)c(F)cc2Cl)c1=O [Compound 17]  CASSIA OBTUSIFOLIA, L.     0.0

Task: Please report the recorded CASOB for CC(C)OC(=O)Cn1c(=O)n(C)c(=O)n(-c2cc(N=c3sc(=O)n4n3CCCC4)c(F)cc2Cl)c1=O [Compound 13] .
Output: 9.0

Task: What about C#CCn1c(=O)n(C)c(=O)n(-c2cc(N3C(=O)C4=C(CCCC4)C3=O)c(F)cc2Cl)c1=O [Compound 16] ?
Output: 0.0

* * *

Some compounds, each annotated with its measured Herbicide rating (0-9) CHEAL.
Test system: CHENOPODIUM ALBUM, L.
Assay: Preemergence herbicidal evaluation, CHEAL (Lambsquarters, Common)
Assay type: in vivo
Conditions: 0.125 kg/ha, rated four to five weeks after treatment
Description: Results of herbicide evaluation are expressed on a rating scale (0-9). The scale is based upon a visual observation of plant stand, vigor, malformation, size, chlorosis and overall plant appearance as compared with a control. […]

Worked examples follow.
> print(dat)
                                   compound  result
1  CC(C)OC(=O)Cn1c(=O)n(C)c(=O)n(-c2cc(N3C(=O)C4CSCCN4C3=O)c(F)cc2Cl)c1=O (stereo not shown) [Compound 12]     9.0
2  COC(=O)Cn1c(=O)n(C)c(=O)n(-c2cc(N3C(=O)C4=C(CCCC4)C3=O)ccc2F)c1=O [Compound 5]     0.0

Task: Please report the recorded Herbicide rating (0-9) CHEAL for CCOC(=O)Cn1c(=O)[nH]c(=O)n(-c2ccc(F)c(N3C(=O)C4=C(CCCC4)C3=O)c2)c1=O [Compound 9] .
Output: 0.0

Task: What about Cn1c(=O)n(CC(=O)OC(C)(C)C)c(=O)n(-c2cc(N3C(=O)C4=C(CCCC4)C3=O)c(F)cc2Cl)c1=O [Compound 2] ?
Output: 9.0
